Recorded measurements of IC50, one per entry
- TARGET_SYSTEM: p-EGFR Del19/C797S (H1975-clone #23 cells) (Homo sapiens, UniProt P00533)
- Sequence (P00533 with tags, fused parts or gaps DEL746-750/C797S, form open): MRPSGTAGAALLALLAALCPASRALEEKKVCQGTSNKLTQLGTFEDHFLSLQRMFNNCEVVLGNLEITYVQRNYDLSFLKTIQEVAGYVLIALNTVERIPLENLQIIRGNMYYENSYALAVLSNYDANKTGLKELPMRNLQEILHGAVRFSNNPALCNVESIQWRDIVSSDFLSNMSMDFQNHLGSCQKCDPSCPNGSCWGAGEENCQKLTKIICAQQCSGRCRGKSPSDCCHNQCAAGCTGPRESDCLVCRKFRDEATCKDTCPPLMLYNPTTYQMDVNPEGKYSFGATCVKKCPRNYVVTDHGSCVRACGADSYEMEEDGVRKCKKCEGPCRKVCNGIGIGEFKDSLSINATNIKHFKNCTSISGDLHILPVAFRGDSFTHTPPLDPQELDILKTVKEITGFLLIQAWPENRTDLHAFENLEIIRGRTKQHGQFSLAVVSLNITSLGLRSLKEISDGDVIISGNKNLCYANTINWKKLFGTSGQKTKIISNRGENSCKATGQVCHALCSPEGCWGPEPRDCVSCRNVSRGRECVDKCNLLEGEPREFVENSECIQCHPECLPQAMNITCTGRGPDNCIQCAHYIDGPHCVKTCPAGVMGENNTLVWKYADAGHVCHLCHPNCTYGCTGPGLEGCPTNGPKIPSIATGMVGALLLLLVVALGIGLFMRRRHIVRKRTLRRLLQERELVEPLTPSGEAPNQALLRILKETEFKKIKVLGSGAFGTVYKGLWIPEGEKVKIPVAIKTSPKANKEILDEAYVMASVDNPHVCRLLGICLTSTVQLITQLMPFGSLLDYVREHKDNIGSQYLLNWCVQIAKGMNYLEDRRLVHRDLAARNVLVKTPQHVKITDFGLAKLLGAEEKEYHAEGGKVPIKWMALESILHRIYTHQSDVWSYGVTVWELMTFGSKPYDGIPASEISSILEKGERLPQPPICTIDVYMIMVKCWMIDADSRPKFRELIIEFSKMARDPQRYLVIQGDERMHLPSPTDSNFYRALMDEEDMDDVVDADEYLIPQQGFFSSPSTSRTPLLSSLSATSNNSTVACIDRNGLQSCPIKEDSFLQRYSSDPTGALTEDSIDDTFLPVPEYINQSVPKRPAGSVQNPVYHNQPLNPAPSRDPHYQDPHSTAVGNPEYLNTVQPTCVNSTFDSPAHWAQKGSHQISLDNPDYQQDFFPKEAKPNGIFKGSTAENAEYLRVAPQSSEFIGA
- PROTOCOL_TEXT: Cell p-EGFR inhibition assay, HTRF, H1975-clone#23 (DEL19/C797S) cells
- CONDITION: 16 h treatment, pEGFR inhibition
Use nM as the unit, but write only the number.

The examples below pair each entry with its known result.
[
  {
    "COMPOUND": "COC[C@H]1CN(c2ccc3c(c2)N2CC4CC[C@H](COc5c(c(C(F)(F)F)nn5C)-c5cc(cc(C)n5)C(=O)/N=C/2N3)C4)CCN1C1CCN(c2cc(F)c([C@H]3CCC(=O)NC3=O)c(F)c2)CC1 [Example 95]",
    "IC50 [nM]": 4.5
  },
  {
    "COMPOUND": "COC[C@H]1CN(c2ccc3c(c2)N2CC4CC[C@H](COc5c(c(C(F)F)nn5C)-c5cc(cc(C)n5)C(=O)/N=C/2N3)C4)CCN1C1CCN(c2cc(F)c([C@H]3CCC(=O)NC3=O)c(F)c2)CC1 [Example 104]",
    "IC50 [nM]": 2
  }
]

Asked: Report IC50 for Cc1cc2cc(n1)-c1cnn(C)c1OC[C@H]1CCC(C1)CN1/C(=N/C2=O)Nc2ccc(N3CC4(C3)CN(C3CCN(c5cc(F)c([C@H]6CCC(=O)NC6=O)c(F)c5)CC3)C4)cc21 [Example 117] please.
Given back: 0.6
